Read-out record for Poly [ADP-ribose] polymerase 1 (Homo sapiens, UniProt P09874): pIC50
By convention, pIC50 is the negative base-10 log of a molar concentration.

Some molecules with recorded pIC50:
COc1cc(-c2cc3[nH]c(=O)c4ccccc4n3n2)cc(OC)c1OC    7.52
O=c1[nH]c2cc(-c3ccc(Cl)cc3)nn2c2ccccc12    6.30
CC(C)Cc1cc2[nH]c(=O)c3ccccc3n2n1    6.40
O=C(c1ccc(-c2cc3[nH]c(=O)c4ccccc4n3n2)cc1)N1CCN2CCC[C@H]2C1    5.60
CN1CCN(C(=O)c2cccc(-c3cc4[nH]c(=O)c5ccccc5n4n3)c2)CC1    6.00
CN1CCCN(C(=O)c2cc3[nH]c(=O)c4ccccc4n3n2)CC1    8.00

Enquiry: Find the measured pIC50 of O=c1[nH]c2cc(C3CCCCC3)nn2c2ccccc12 and report it.
Return: 6.70

Enquiry: Find the measured pIC50 of CCc1ccc(-c2cc3[nH]c(=O)c4ccccc4n3n2)cc1 and report it.
Return: 6.30

Enquiry: Find the measured pIC50 of CN(C)CCN(C)C(=O)c1cc2[nH]c(=O)c3ccccc3n2n1 and report it.
Return: 7.00

Enquiry: Find the measured pIC50 of O=c1[nH]c2cc(-c3cccs3)nn2c2ccccc12 and report it.
Return: 6.82

Enquiry: Find the measured pIC50 of CN1CCC(CNC(=O)c2cc3[nH]c(=O)c4ccccc4n3n2)C1 (stereo not drawn) and report it.
Return: 7.10

Enquiry: Find the measured pIC50 of CN1CCC(CNC(=O)c2cc3[nH]c(=O)c4ccccc4n3n2)CC1 and report it.
Return: 7.15

Enquiry: Find the measured pIC50 of O=C(NCCN1CCOCC1)c1cc2[nH]c(=O)c3ccccc3n2n1 and report it.
Return: 6.85

Enquiry: Find the measured pIC50 of O=C(NCCCN1CCOCC1)c1cc2[nH]c(=O)c3ccccc3n2n1 and report it.
Return: 6.85

Enquiry: Find the measured pIC50 of O=C(NCCC1(N2CCOCC2)CCCC1)c1cc2[nH]c(=O)c3ccccc3n2n1 and report it.
Return: 7.05

Enquiry: Find the measured pIC50 of O=C(c1cc2[nH]c(=O)c3ccccc3n2n1)N1CCN(CC2CC2)CC1 and report it.
Return: 6.52

Enquiry: Find the measured pIC50 of COc1cccc(-c2cc3[nH]c(=O)c4ccccc4n3n2)c1OC and report it.
Return: 7.00

Enquiry: Find the measured pIC50 of O=c1[nH]c2cc(-c3ccco3)nn2c2ccccc12 and report it.
Return: 6.70
